Here the recorded solubility at 10 min is given for each entry.
# protocol_summary: Solubility of linker-payloads (LC-MS standard curve, saturated solution)
# Assay type: physicochemical
# condition_set: water, thermodynamic from solid, water; read-out: Solubility
Numbered stars: 1 amine (or outer) side, 2 acyl side, 3 side chain; on linkers, the order of the positions; unused ones are H or OH. Square brackets hold non-standard residues; d marks the D form. Peptide text beside a SMILES is read from it. * marks the point of attachment. Dolaproine = CO[C@@H]([C@@H]1CCCN1)[C@@H](C)C(=O)O; Dil = CC[C@H](C)[C@H](NC)[C@@H](CC(=O)O)OC; PABC = O=C(OCc1ccc(N[*:1])cc1)[*:2]; DBCO = C1#Cc2ccccc2N(*)Cc2ccccc21; X1 = C[C@@H](N*)[C@@H](O)c1ccccc1; Cit = NC(=O)NCCC[C@H](N)C(=O)O; PEG4 = NCCOCCOCCOCCOCCC(=O)O; Suc = O=C(CCC(=O)[*:2])[*:1]; NMeV = CN[C@H](C(=O)O)C(C)C
property_name: solubility at 10 min

molecule	property_name	result
CC[C@H](C)[C@@H]([C@@H](CC(=O)N1CCC[C@H]1[C@H](OC)[C@@H](C)C(=O)N[C@H](C)[C@@H](O)c1ccccc1)OC)N(C)C(=O)[C@@H](NC(=O)[C@H](C(C)C)N(C)C(=O)OCc1ccc(NC(=O)[C@H](CCCNC(N)=O)NC(=O)[C@@H](NC(=O)CCOCCOCCOCCOCCNC(=O)CCC(=O)N2Cc3ccccc3C#Cc3ccccc32)C(C)C)cc1)C(C)C [Ex36] ({DBCO-Suc-PEG4}-V[Cit][PABC][NMeV]V[Dil][Dolaproine]-X1)	solubility at 10 min	< 100 µg/mL
CCC[C@@H]1O[C@@H]2C[C@H]3[C@@H]4CCC5=CC(=O)C=C[C@]5(C)[C@H]4[C@@H](O)C[C@]3(C)[C@]2(C(=O)COc2ccc(NC(=O)[C@H](C)NC(=O)[C@@H](NC(=O)CCOCCOCCOCCOCCNC(=O)CCC(=O)N3Cc4ccccc4C#Cc4ccccc43)C(C)C)cc2)O1	solubility at 10 min	< 100 µg/mL

* * *

# protocol_summary: Solubility of linker-payloads (LC-MS standard curve, saturated solution)
# Format: physicochemical
# condition_set: water, thermodynamic from solid, Table 8A; read-out: Solubility
property_name: solubility at 10 min

molecule	result
CCCC1O[C@@H]2C[C@H]3[C@@H]4C[C@H](F)C5=CC(=O)C=C[C@]5(C)[C@@]4(F)[C@@H](O)C[C@]3(C)[C@]2(C(=O)CNC(=O)OCc2ccc(NC(=O)[C@H](CCCNC(N)=O)NC(=O)[C@@H](NC(=O)CCOCCOCCOCCOCCNC(=O)CCC(=O)N3Cc4ccccc4C#Cc4ccccc43)C(C)C)cc2)O1 (stereo partly shown) [Ex58, DIBAC-suc-PEG4-vcPAB-1h]	< 20 µg/mL

* * *

Here the recorded solubility at 10 min is given for each entry.
# protocol_summary: Solubility of linker-payloads (LC-MS standard curve, saturated solution)
# Format: physicochemical
# condition_set: water, thermodynamic from solid, Aq. Solubility (mg/mL)
property_name: solubility at 10 min (µg/mL)

molecule	property_name	units_symbol	qualifier	numeric_value
CC(C)[C@H](NC(=O)[C@@H](CCCCNC(=O)COC1CCCCCc2c1nnn2CC1OC2OC3C(CO)OC(OC4C(CO)OC(OC5C(CO)OC(OC6C(CO)OC(OC7C(CO)OC(OC1C(O)C2O)C(O)C7O)C(O)C6O)C(O)C5O)C(O)C4O)C(O)C3O)NC(=O)CCOCCOCCOCCOCCNC(=O)OCC1C2CCC#CCCC21)C(=O)N[C@@H](C)C(=O)Nc1ccc2c(c1)[C@@]1(C)CCC[C@](C)(C(=O)NC(=O)[C@@]3(C)CCC[C@]4(C)c5cc(O)ccc5CC[C@@H]34)[C@@H]1CC2 (stereo partly shown)	solubility at 10 min	µg/mL	=	300
CCCC1O[C@@H]2C[C@H]3[C@@H]4C[C@H](F)C5=CC(=O)C=C[C@]5(C)[C@@]4(F)[C@@H](O)C[C@]3(C)[C@]2(C(=O)COc2ccc(NC(=O)OCc3ccc(NC(=O)[C@H](CCCNC(N)=O)NC(=O)[C@@H](NC(=O)CCOCCOCCOCCOCCNC(=O)CCC(=O)N4Cc5ccccc5C#Cc5ccccc54)C(C)C)cc3)cc2)O1 (stereo partly shown)	solubility at 10 min	µg/mL	=	10
CC(C)[C@H](NC(=O)[C@@H](CCCCNC(=O)COC1CCCCCc2c1nnn2CC1OC2OC3C(CO)OC(OC4C(CO)OC(OC5C(CO)OC(OC6C(CO)OC(OC7C(CO)OC(OC1C(O)C2O)C(O)C7O)C(O)C6O)C(O)C5O)C(O)C4O)C(O)C3O)NC(=O)CCOCCOCCOCCOCCNC(=O)CCC(=O)N1Cc2ccccc2C#Cc2ccccc21)C(=O)N[C@@H](C)C(=O)Nc1ccc2c(c1)[C@@]1(C)CCC[C@](C)(C(=O)NC(=O)[C@@]3(C)CCC[C@]4(C)c5cc(O)ccc5CC[C@@H]34)[C@@H]1CC2 (stereo partly shown)	solubility at 10 min	µg/mL	=	50
CC(C)[C@H](NC(=O)CCOCCOCCOCCOCCNC(=O)CCC(=O)N1Cc2ccccc2C#Cc2ccccc21)C(=O)N[C@@H](C)C(=O)Nc1ccc2c(c1)[C@@]1(C)CCC[C@](C)(C(=O)NC(=O)[C@@]3(C)CCC[C@]4(C)c5cc(O)ccc5CC[C@@H]34)[C@@H]1CC2	solubility at 10 min	µg/mL	<	100

* * *

# test_system: Cathepsin B (Homo sapiens)
# protocol_summary: Cathepsin B cleavage rate of linker-payloads (Example 66)
# Format: biochemical
# condition_set: Cathepsin B cleavage rate, Table 8A
Here the recorded capB is given for each entry.

compound	capB
CC(C)[C@H](NC(=O)CCOCCOCCOCCOCCNC(=O)CCC(=O)N1Cc2ccccc2C#Cc2ccccc21)C(=O)N[C@@H](C)C(=O)Nc1ccc2c(c1)[C@@]1(C)CCC[C@](C)(C(=O)NC(=O)[C@@]3(C)CCC[C@]4(C)c5cc(O)ccc5CC[C@@H]34)[C@@H]1CC2	13.6%
CC(C)[C@H](NC(=O)[C@@H](CCCCNC(=O)COC1CCCCCc2c1nnn2CC1OC2OC3C(CO)OC(OC4C(CO)OC(OC5C(CO)OC(OC6C(CO)OC(OC7C(CO)OC(OC1C(O)C2O)C(O)C7O)C(O)C6O)C(O)C5O)C(O)C4O)C(O)C3O)NC(=O)CCOCCOCCOCCOCCNC(=O)CCC(=O)N1Cc2ccccc2C#Cc2ccccc21)C(=O)N[C@@H](C)C(=O)Nc1ccc2c(c1)[C@@]1(C)CCC[C@](C)(C(=O)NC(=O)[C@@]3(C)CCC[C@]4(C)c5cc(O)ccc5CC[C@@H]34)[C@@H]1CC2 (stereo partly shown)	38.5% [1]
CCCC1O[C@@H]2C[C@H]3[C@@H]4C[C@H](F)C5=CC(=O)C=C[C@]5(C)[C@@]4(F)[C@@H](O)C[C@]3(C)[C@]2(C(=O)CNC(=O)OCc2ccc(NC(=O)[C@H](CCCNC(N)=O)NC(=O)[C@@H](NC(=O)CCOCCOCCOCCOCCNC(=O)CCC(=O)N3Cc4ccccc4C#Cc4ccccc43)C(C)C)cc2)O1 (stereo partly shown)	20.8%
CCCC1O[C@@H]2C[C@H]3[C@@H]4C[C@H](F)C5=CC(=O)C=C[C@]5(C)[C@@]4(F)[C@@H](O)C[C@]3(C)[C@]2(C(=O)COc2ccc(NC(=O)OCc3ccc(NC(=O)[C@H](CCCNC(N)=O)NC(=O)[C@@H](NC(=O)CCOCCOCCOCCOCCNC(=O)CCC(=O)N4Cc5ccccc5C#Cc5ccccc54)C(C)C)cc3)cc2)O1 (stereo partly shown)	<5%
